# Tested on: P. falciparum 3D7 growth, pLDH absorbance
# ASSAY: blood-stage malaria parasite growth potency – strain 3D7, dose response (AID 2305)
Threshold 1 µM. IC50 below it: 1. IC50 at it or above: -1.

                                   molecule  answer_label
0  Cc1ccc(O)cc1Nc1ccnc2cc(-c3csc(CN(C)CCN(C)C)n3)ccc12             1
1  CN(C)CCN1CCN(CCCN2c3ccccc3Sc3ccc(C(F)(F)F)cc32)CC1             1
2  COc1ccc2nccc([C@@H](O)CN3CCC(NC(=O)c4cc5c(F)cc(F)cc5[nH]4)CC3)c2n1            -1
3  O=C(NC1CC1)c1cnc(N2CCC(OCc3ccccc3)CC2)c(Cl)c1            -1
4  c1ccc(CN2CCCN(c3ccc4c(c3)CCN(Cc3ccc(-c5ncc[nH]5)cc3)CC4)CC2)cc1             1
5  CS(=O)(=O)Nc1ccc2c(C3CCN(CCC4CCN(C(=O)/C=C/c5ccc(Cl)c(Cl)c5)CC4)CC3)c[nH]c2c1             1

Could you now look at the following molecule, please?
Please let me know if Cc1ccc(C(C)C)c(Oc2cnc(NC(CO)c3ccccc3)nc2N)c1 (stereo not drawn) shows IC50 below 1 µM.
1

====

# System: P. falciparum 3D7 growth, pLDH absorbance
# ASSAY: blood-stage malaria parasite growth potency – strain 3D7, dose response (AID 2305)
MEASURED_ATTRIBUTE: IC50 (nM)
Please give a number only; it is taken to be in nM.

Worked examples follow.
>>> print(df.to_string())
                                   compound  measured_attribute  unit_descriptor  data_value
0  Cc1ccc(CN2CCCN(Cc3cccc(NC(=O)c4cc5ccccc5s4)c3)CC2)cc1C                IC50               nM         730
1  O=S(=O)(NCCN1CCCC1)c1ccc(-c2ccc(CNC3Cc4ccccc4C3)cc2)cc1F                IC50               nM        1000
2  CC(Cc1ccc(Cl)cc1)Nc1nc(NC2CCCC2)nc(N2CCC(C#N)(c3ccccc3)CC2)n1 (configuration not stated)                IC50               nM         710
3  O=C(Cc1cccc(O)c1)Nc1ccc(-c2cccc(-c3nc4ccc(C(F)(F)F)cc4[nH]3)c2)cc1                IC50               nM         980
4  CC(C)(C)NC(=O)c1ccc(Oc2ccc(OC(F)(F)F)cc2)c(NC(=O)C(C)(C)C)c1                IC50               nM         980
5  COc1ccc2nccc([C@@H](O)CN3CCC(NCc4cc5c(F)ccc(F)c5[nH]4)CC3)c2n1                IC50               nM         700
6  COc1ccc(-n2c(=O)c3c(n4c(SC(C)C)nnc24)-c2ccccc2CC32CCCCC2)cc1                IC50               nM         500
7  CCCC(N)C(=O)NC1CCN(c2c(F)c(N)c3c(=O)c(C(=O)O)cn4c3c2Oc2ccccc2-4)C1 (configuration not stated)                IC50               nM         360

Given the compound O=c1cc(NCCCNCc2[nH]c3cc(Cl)cc(Cl)c3c2Cn2cccn2)[nH]c2ccccc12 , what is its reported IC50?
970

Given the compound Cc1ccc2[nH]ncc2c1N(CC1CCCCC1)c1ccnc(Nc2ccc(OCC(O)CN3CC=CCC3)cc2)n1 (configuration not stated) , what is its reported IC50?
620

Given the compound Cc1ccoc1C(=O)Nc1cccc(-c2cccc(-c3nc4ccc(C(F)(F)F)cc4[nH]3)c2)c1 , what is its reported IC50?
610

Given the compound COc1cc(CNCCC(C)C)ccc1OCc1cccc(COc2ccc(CNCCC(C)C)cc2OC)c1 , what is its reported IC50?
490

====

# Test system: P. falciparum 3D7 growth, pLDH absorbance
# ASSAY: blood-stage malaria parasite growth potency – strain 3D7, dose response (AID 2305)
MEASURED_ATTRIBUTE: IC50 (nM)
Please give a number only; it is taken to be in nM.

Worked examples follow.
                                   compound                       experimental_system  measured_attribute  unit_descriptor  data_value
0    Cc1nnc(Sc2ncnc3scc(-c4ccc(F)cc4)c23)s1  P. falciparum 3D7 growth, pLDH absorbance                IC50               nM         810
1  CN(/N=C/c1ccc(Cl)cc1)c1nc(NCCc2ccc(O)cc2)nc(N2CCNCC2)n1  P. falciparum 3D7 growth, pLDH absorbance                IC50               nM        1350

As a next step, examine the compound that follows.
Given the compound O=c1cc(NCCCNC2CCOc3c(Cl)cc(Cl)cc32)[nH]c2ccccc12 (stereo not drawn) , what is its reported IC50?
720

====

pIC50 listing for selected compounds.
# Tested on: P. falciparum 3D7 growth, pLDH absorbance
# ASSAY: blood-stage malaria parasite growth potency – strain 3D7, dose response (AID 2305)
# log scale: pIC50 equals minus log10 of the concentration in mol/L

>>> print(df.to_string())
                                   compound                       experimental_system  measured_attribute  data_value
0  CCN(CC)CCN(Cc1ccc(-c2ccc(C(F)(F)F)s2)cc1)C(=O)Cn1c(CCc2cccc(F)c2F)nc(=O)c2ccccc21  P. falciparum 3D7 growth, pLDH absorbance               pIC50        6.00
1  CC(C)C[C@H](NC(=O)c1cc2cc(OCCN3CCNCC3)ccc2o1)C(=O)NC1CC[C@@H](C)N(C(=O)Nc2ccc(Cl)cc2)CC1=O (stereo not given in full)  P. falciparum 3D7 growth, pLDH absorbance               pIC50        6.42
2  O=C(/C=C/c1ccc(Cl)c(Cl)c1)NC1CCC(N2CCC(c3c[nH]c4ccc(O)cc34)CC2)CC1 (stereo not given)  P. falciparum 3D7 growth, pLDH absorbance               pIC50        6.04
3  O=c1ccc2ccc(F)c3c2n1CC3CN1CCC(NCc2cccc(-c3ccccc3F)c2)CC1 (stereo not given)  P. falciparum 3D7 growth, pLDH absorbance               pIC50        5.96
4  CN1CCN(Cc2cccc(-c3ccc4c(Nc5ccc(F)cc5Cl)ccnc4c3)c2)CC1  P. falciparum 3D7 growth, pLDH absorbance               pIC50        6.80
5  Cc1cc(N[C@@H](Cc2ccccc2)C(=O)Nc2ccccc2)nc(NCCc2cccnc2)n1  P. falciparum 3D7 growth, pLDH absorbance               pIC50        5.87

Given the compound CCOc1ccc(-c2cc3nc(C4CCNCC4)c(C(=O)Nc4ccc(C)cc4Cl)cn3n2)cc1 , what is its reported pIC50?
6.04

Given the compound CS(=O)(=O)c1cccc2sc(N3CCN(C(=O)c4ccc([N+](=O)[O-])o4)CC3)nc12 , what is its reported pIC50?
5.91

Given the compound CN(c1ccccc1)c1ccnc(/N=C(\N)Nc2ccc(Cl)cc2)n1 , what is its reported pIC50?
5.96

Given the compound O=C(COc1cccc([N+](=O)[O-])c1)Nc1ccc(-c2nc3ccccc3[nH]2)cc1 , what is its reported pIC50?
6.12

Given the compound COC(=O)c1cccc(NC(=O)NC2CCN(c3ccnc(Nc4ccc(F)cc4)n3)C2)c1 (stereo not given) , what is its reported pIC50?
6.30

Given the compound CC(Cl)=CCc1c(C)[nH]c2c(ccc3ccccc32)c1=O , what is its reported pIC50?
6.70

Given the compound COc1cccc(CCNC(C)Cc2ccc(OCCCCOc3ccccc3)cc2)c1 (stereo not given) , what is its reported pIC50?
6.13

Given the compound N#Cc1ccc2c(c1)CCN(CCC1CCC(NC(=O)/C=C/c3ccc(Cl)c(Cl)c3)CC1)CC2 (stereo not given) , what is its reported pIC50?
6.38

Given the compound Oc1cc(Nc2ccnc3cc(-c4cccc(CN5CCOCC5)c4)ccc23)c(F)cc1Cl , what is its reported pIC50?
6.68

Given the compound COc1ccc(NC(=O)NCC2CCCN(CCCCCNC(=O)/C=C/c3ccc(Cl)c(Cl)c3)C2)c(OC)c1 (stereo not given) , what is its reported pIC50?
6.07

Given the compound O=C(c1cccc(-c2ccc(-c3nc4ccc(C(F)(F)F)cc4[nH]3)cc2)c1)N1CCCCC1CN1CCC(O)C1 (stereo not given) , what is its reported pIC50?
6.33

Given the compound Oc1ccccc1CNCC(O)c1cc(C(F)(F)F)cc(C(F)(F)F)c1 (stereo not given) , what is its reported pIC50?
6.74

Given the compound COc1ccc(NC(=O)/C=C/c2ccccc2Cl)cc1OCCN1CCN(c2ccncc2)CC1 , what is its reported pIC50?
6.14

Given the compound CN1CCC(N2CCN(Cc3cccc(-c4ccc(-c5nc6ccc(C(F)(F)F)cc6[nH]5)cc4)c3)CC2)CC1 , what is its reported pIC50?
6.85
